system: Plasmodium falciparum; assay: Antimalarial activity against chloroquine-resistant Plasmodium falciparum K1; assay type: functional, organism-based
Checkbox rule: EC50 lower than 10 nM = y; EC50 not lower than 10 nM = n.

Examples with answers:
[
  {
    "compound": "CCN1C(=O)/C(=c2/s/c(=C3/C=CC=CN3C)c(=O)n2CC)S/C1=N\\c1sc2ccccc2[n+]1C.[Cl-]",
    "group": "n"
  },
  {
    "compound": "CCN(CC)CCCC(C)Nc1ccnc2cc(Cl)ccc12 (configuration not stated)",
    "group": "n"
  },
  {
    "compound": "CCN1C(=O)/C(=c2/s/c(=C3/SCCN3C)c(=O)n2CC)S/C1=N\\c1sc2cc(Cl)ccc2[n+]1C.[Cl-]",
    "group": "n"
  },
  {
    "compound": "C=CC[n+]1ccccc1/C=c1\\s/c(=C2/Sc3ccccc3N2C)c(=O)n1C.Cc1ccc(S(=O)(=O)[O-])cc1",
    "group": "n"
  },
  {
    "compound": "CCN1C(=O)/C(=C2\\C=Cc3ccccc3N2C)S/C1=N\\c1sc2cc(Cl)ccc2[n+]1C.[Cl-]",
    "group": "y"
  }
]

Problem: # TODO verify EC50 < 10 nM strictly for this compound: CCN1C(=O)/C(=C2\C=Cc3ccccc3N2C)S/C1=N\c1cccc[n+]1C.[Cl-]
Result: y
